# test.system: UniProtKB Q9P0G3
# Sequence (Q9P0G3 41-267, species assumed): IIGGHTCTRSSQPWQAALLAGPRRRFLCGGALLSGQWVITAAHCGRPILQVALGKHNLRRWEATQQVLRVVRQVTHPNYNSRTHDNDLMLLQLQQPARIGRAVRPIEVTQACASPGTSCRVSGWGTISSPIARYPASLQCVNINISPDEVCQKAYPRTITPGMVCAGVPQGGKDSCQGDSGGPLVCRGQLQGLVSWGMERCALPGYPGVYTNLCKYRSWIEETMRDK
# assay.explanation: Protease panel: Kallikrein 14
# Type: biochemical
# test.conditions: supplement panel table, test and control compound
Where a name gives a salt, the structure may show the parent alone.

[
  {
    "compound": "CCOC(=O)c1ccc(OC(=O)CCCCCN=C(N)N)cc1 [Gabexate mesylate (GM), Gabexate mesylate]",
    "test.system": "UniProtKB Q9P0G3",
    "unit.tag": "µM",
    "IC50": 0.969
  }
]

====

# test.system: Calpain 1 (Homo sapiens)
# Construct: Reaction Biology Corporation (contract testing)
# Sequence (P07384 1-714): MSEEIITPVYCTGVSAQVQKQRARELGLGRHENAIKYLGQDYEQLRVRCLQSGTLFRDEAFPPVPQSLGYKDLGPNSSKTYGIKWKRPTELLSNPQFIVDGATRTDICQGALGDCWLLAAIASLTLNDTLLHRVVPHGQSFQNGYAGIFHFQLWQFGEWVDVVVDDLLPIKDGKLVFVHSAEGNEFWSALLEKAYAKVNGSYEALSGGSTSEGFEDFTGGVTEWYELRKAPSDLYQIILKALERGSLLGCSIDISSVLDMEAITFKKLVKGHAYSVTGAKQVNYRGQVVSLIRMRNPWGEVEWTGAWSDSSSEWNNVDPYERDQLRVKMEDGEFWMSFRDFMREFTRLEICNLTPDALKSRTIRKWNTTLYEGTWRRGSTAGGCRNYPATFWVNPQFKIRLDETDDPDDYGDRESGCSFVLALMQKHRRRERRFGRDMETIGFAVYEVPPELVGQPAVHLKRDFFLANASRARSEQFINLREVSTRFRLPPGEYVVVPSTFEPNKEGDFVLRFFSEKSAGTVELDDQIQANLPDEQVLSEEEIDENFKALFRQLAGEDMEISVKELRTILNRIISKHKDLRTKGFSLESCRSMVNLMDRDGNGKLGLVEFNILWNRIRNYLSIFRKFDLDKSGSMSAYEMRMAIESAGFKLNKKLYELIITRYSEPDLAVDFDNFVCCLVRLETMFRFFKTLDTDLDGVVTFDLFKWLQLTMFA
# Sequence (P04632 1-268 partner): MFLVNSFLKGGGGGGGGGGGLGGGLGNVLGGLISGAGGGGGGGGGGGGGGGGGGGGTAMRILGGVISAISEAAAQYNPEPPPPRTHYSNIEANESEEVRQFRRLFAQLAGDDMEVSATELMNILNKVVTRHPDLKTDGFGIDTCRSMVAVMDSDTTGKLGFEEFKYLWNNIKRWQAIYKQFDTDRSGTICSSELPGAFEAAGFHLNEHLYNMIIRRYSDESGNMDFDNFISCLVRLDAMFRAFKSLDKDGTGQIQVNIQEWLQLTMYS
# assay.explanation: Protease panel: Calpain 1
# Type: biochemical
# test.conditions: supplement panel table, test and control compound
observed.property: IC50 (µM)

[
  {
    "mol": "CC(C)C[C@H](NC(=O)[C@H]1O[C@@H]1C(=O)O)C(=O)NCCCCN=C(N)N",
    "test.system": "Calpain 1 (Homo sapiens)",
    "observed.property": "IC50",
    "numeric.result": 0.098
  }
]

Data provenance: paper PMC5404560
